B1: MLL5 (parent)
chain: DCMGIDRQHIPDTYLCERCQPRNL

- Variants of: B1
- PROTOCOL NOTES: protein stability index of a GFP-peptide fusion (GPS, HEK-293T) (PSI 1-6); higher = more stable;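 further: lentivirally expressed fusions sorted by FACS into six bins by GFP to DsRed ratio, PSI derived from sequencing read proportions per bin multiplied by bin number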
- MEASUREMENT PARAMETERS: c terminus: a fixed tail appended
RECORDED METRIC: protein stability index
Keep the answer to the number alone.

// solved cases for protein stability index follow
CHANGE | protein stability index
E17M | 2.28
P21E | 4
D12M | 3.1

Now, please, on to the next variant.
Sample I5D — what was its protein stability index?
2.87
